- target_under_test: polypeptide SEQ ID NO: 8 in which X1, X2, X3 and X4 each represents a lysine (Mus musculus, UniProt O09114)
- Construct: made in house; host or cells: chemical peptide synthesis (Fmoc)
- Sequence (O09114 148-173 limits assumed): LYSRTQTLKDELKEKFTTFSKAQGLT
- procedure_text: HPLC test of % fixing of test compound on polypeptide
- Assay type: binding
- measurement_context: Example 4; twice 0.5 mM polypeptide, 5 mM test compound, TRIS-HCl 100 mM; 'Fixing' = not quantifiable
One threshold, 30%, splits the recorded % fixing (mean), SEQ ID NO: 8 (X1-X4 lysine) values: lower ones are Y, equal or higher ones are N.

Known results for compounds:
>>> df
                         compound  cat
0                      Clc1ccccc1    Y
1  CC(O)C(=O)O (stereo not shown)    Y

QUERY: Please let me know if CCCCCCCCCCCCOC(=O)c1cc(O)c(O)c(O)c1 [LG, lauryl gallate] shows % fixing (mean), SEQ ID NO: 8 (X1-X4 lysine) below 30%.
RESULT: N

QUERY: Please let me know if `CN(C)CCCN` shows % fixing (mean), SEQ ID NO: 8 (X1-X4 lysine) below 30%.
RESULT: Y
